Biological target: GSPT1 (Homo sapiens, UniProt P15170+Q96SW2)
Construct: CAL-51 cells were purchased from DSMZ (cat. Number ACC302); host or cells: CAL-51 cells
Sequence (P15170 whole entry): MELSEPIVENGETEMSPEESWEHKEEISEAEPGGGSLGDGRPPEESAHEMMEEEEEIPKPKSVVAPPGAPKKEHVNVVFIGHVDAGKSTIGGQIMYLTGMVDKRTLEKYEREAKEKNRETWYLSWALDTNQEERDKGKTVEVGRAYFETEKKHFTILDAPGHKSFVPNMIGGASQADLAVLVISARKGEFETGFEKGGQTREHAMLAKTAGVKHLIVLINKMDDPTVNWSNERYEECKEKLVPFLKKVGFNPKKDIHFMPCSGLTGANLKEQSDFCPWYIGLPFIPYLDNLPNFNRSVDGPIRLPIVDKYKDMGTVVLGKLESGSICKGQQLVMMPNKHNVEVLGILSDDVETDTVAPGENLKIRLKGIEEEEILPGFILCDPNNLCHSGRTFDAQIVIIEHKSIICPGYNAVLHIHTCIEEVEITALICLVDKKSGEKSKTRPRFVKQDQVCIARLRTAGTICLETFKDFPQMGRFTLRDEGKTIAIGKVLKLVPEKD
Sequence (Q96SW2 whole entry): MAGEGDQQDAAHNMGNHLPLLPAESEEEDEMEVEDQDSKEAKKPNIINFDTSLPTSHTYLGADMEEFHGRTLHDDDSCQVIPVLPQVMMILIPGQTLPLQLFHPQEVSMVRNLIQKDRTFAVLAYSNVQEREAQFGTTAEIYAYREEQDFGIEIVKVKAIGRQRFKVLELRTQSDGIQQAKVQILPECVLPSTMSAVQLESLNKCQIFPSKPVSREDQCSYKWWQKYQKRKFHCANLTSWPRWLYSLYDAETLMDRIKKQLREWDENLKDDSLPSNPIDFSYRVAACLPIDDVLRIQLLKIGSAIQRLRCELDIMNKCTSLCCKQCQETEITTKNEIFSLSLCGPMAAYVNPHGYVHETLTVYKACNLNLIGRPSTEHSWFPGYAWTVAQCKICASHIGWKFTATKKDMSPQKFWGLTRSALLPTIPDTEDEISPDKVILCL
Sequence (Q16531 whole entry partner): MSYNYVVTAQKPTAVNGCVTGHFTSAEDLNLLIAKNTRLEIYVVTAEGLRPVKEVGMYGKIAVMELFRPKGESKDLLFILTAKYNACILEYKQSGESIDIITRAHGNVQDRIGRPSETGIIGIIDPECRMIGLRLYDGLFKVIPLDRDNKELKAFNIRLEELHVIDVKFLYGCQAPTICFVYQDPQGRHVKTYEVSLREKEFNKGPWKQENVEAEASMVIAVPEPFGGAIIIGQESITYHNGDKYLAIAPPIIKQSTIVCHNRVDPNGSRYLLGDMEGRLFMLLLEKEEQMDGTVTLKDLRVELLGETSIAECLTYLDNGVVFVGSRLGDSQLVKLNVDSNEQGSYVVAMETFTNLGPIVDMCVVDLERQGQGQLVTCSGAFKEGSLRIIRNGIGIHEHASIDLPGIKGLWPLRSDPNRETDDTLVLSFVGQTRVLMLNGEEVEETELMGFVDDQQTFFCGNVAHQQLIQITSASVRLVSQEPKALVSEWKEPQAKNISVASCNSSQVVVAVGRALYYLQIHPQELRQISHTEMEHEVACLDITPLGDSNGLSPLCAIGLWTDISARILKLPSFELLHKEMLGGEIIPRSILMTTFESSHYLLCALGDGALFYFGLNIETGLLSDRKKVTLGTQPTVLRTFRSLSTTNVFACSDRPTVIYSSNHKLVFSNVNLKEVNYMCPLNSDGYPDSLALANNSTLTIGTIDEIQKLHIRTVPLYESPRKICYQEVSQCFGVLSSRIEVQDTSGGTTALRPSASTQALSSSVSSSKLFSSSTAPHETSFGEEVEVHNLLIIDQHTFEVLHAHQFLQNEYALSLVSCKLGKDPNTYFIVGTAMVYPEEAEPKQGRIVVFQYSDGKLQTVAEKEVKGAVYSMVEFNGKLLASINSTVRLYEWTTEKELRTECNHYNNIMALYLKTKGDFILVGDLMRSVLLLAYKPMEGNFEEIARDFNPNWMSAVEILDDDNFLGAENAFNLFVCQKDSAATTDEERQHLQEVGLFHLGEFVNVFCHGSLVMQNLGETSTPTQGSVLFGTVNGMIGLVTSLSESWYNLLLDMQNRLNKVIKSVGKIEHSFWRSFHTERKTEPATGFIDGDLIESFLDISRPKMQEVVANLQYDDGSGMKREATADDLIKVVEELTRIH
Assay: GSPT1 degradation immunofluorescence assay in CAL-51 cells
Type: cell-based
Conditions: 6 hours treatment, compounds 1 to 165, read-out: Activity for GSPT1 degradation (DC50 code)
Quantity Kind: DC50

Provide measured DC50 on GSPT1 (Homo sapiens, UniProt P15170+Q96SW2) for COc1ccccc1CNC(=O)NCc1ccc2c(c1)C(=O)N(C1CCC(=O)NC1=O)C2 (centres unmarked) please.
> 300 nM

Look up and report DC50, with GSPT1 (Homo sapiens, UniProt P15170+Q96SW2) as system, for Cc1c(Cl)cc(NC(=O)NCc2ccc3c(c2)C(=O)N(C2CCC(=O)NC2=O)C3)cc1CN1CCN2CCC1C2 (centres unmarked)
> 300 nM

Please respond with reported DC50 (system GSPT1 (Homo sapiens, UniProt P15170+Q96SW2)) for Cc1c(Cl)cc(NC(=O)NCc2ccc3c(c2)C(=O)N(C2CCC(=O)NC2=O)C3)cc1CN1CC2CCC(C1)O2 (centres unmarked) .
≤ 100 nM

Provide measured DC50 on GSPT1 (Homo sapiens, UniProt P15170+Q96SW2) for Cc1c(Cl)cc(NC(=O)NCc2ccc3c(c2)C(=O)N(C2CCC(=O)NC2=O)C3)cc1CC1COCCN1C (centres unmarked) please.
≤ 100 nM

Look up and report measured DC50 (GSPT1 (Homo sapiens, UniProt P15170+Q96SW2)) for the following compound: COc1ccc(CCNC(=O)NCc2ccc3c(c2)C(=O)N(C2CCC(=O)NC2=O)C3)cc1 (centres unmarked)
> 300 nM

// data source = patent US20240216355A1
